Test target: human NK1-receptor (Homo sapiens, UniProt P25103)
Sequence (P25103 whole entry): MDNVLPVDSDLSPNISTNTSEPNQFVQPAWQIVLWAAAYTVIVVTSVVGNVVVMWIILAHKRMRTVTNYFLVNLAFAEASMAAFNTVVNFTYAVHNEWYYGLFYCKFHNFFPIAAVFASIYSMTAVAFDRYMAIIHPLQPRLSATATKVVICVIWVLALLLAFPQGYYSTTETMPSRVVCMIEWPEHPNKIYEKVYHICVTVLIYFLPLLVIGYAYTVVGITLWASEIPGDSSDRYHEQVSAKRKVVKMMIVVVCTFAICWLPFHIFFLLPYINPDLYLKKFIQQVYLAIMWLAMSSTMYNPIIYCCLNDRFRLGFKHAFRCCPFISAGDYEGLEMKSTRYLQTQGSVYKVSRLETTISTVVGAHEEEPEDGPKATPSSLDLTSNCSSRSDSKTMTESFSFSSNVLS
Experimental details: Binding potency of the test substances to NK1-receptors in vitro ([3H]-Substance P displacement)
Study conditions: human NK1-receptor in CHO cell membranes, average of at least three measurements, read-out: pKi, binding potency to NK1-receptors (converted)
Ki strictly less than 50 nM = Y. Otherwise N.

Here's what some known entries look like.
[[record]]
molecule = "CNC(=O)C1(N2CCCCC2)CCN(CCC(CN(C)C(=O)c2cc(C#N)cc3ccccc23)c2ccc(Cl)c(Cl)c2)CC1 (stereo not drawn) [compound 93]"
category = "Y"

[[record]]
molecule = "CCC(=O)N(CC1CC1)C1CCN(CC[C@H](CN(C)C(=O)c2ccccc2)c2ccc(Cl)c(Cl)c2)CC1 [compound 105]"
category = "Y"

[[record]]
molecule = "CN(C)C(=O)C1(N2CCCCC2)CCN(CC[C@H](CN(C)C(=O)c2ccccc2)c2ccc(Cl)c(Cl)c2)CC1 [compound 1]"
category = "N"

[[record]]
molecule = "COc1cccc(C(=O)N(C)CC(CCN2CCC(C(=O)N(C)C)(N3CCCCC3)CC2)c2ccc(Cl)c(Cl)c2)c1 (stereo not drawn) [compound 82]"
category = "N"

[[record]]
molecule = "CN(C)C(=O)C1(N(C)C)CCN(CCC(CN(C)C(=O)c2ccccc2)c2ccc(Cl)c(Cl)c2)CC1 (stereo not drawn) [compound 127]"
category = "N"


Lab note: confirm whether the reported Ki for this molecule is below 50 nM, equality not counting. molecule: CN(CC(CCN1CCC(C(=O)N2CCCCC2)(N2CCCCC2)CC1)c1ccc(Cl)c(Cl)c1)C(=O)c1cc(C#N)cc2ccccc12 (stereo not drawn) [compound 125] Y

Lab note: confirm whether the reported Ki for this molecule is below 50 nM, equality not counting. molecule: CN(C)C(=O)C1(N2CCCC2)CCN(CCC(CN(C)C(=O)c2cc(C#N)cc3ccccc23)c2ccc(Cl)c(Cl)c2)CC1 (stereo not drawn) [compound 98] Y

Lab note: confirm whether the reported Ki for this molecule is below 50 nM, equality not counting. molecule: CN(CC(CCN1CCC(C(=O)N2CCCC2)(N2CCCCC2)CC1)c1ccc(Cl)c(Cl)c1)C(=O)c1cc(C#N)cc2ccccc12 (stereo not drawn) [compound 126] Y

###

Test target: human NK1-receptor (Homo sapiens)
Experimental details: Binding potency of the test substances to NK1-receptors in vitro ([3H]-Substance P displacement)
Study conditions: pKi, binding potency to NK1-receptors, human NK1-receptor in CHO cell membranes, average of at least three measurements
Recorded Ki, one value per entry.
Field format: number, assumed nM, no unit text.

Consider the following illustrative entries.
[[record]]
molecule = "CN(C)C(=O)C1(N2CCCCC2)CCN(CCC(CN(C)C(=O)c2cccc(C(F)(F)F)c2)c2ccc(Cl)c(Cl)c2)CC1 (stereo not drawn)"
test_target = "human NK1-receptor (Homo sapiens)"
reading = 79.4

[[record]]
molecule = "CCC(=O)N(C1CCCCC1)C1CCN(CC[C@H](CN(C)C(=O)c2ccccc2)c2ccc(Cl)c(Cl)c2)CC1"
test_target = "human NK1-receptor (Homo sapiens)"
reading = 79.4


Now take the following molecule into account.
Fill in the blank: the reported Ki of CCCCN(C(=O)CC)C1CCN(CC[C@H](CN(C)C(=O)c2ccccc2)c2ccc(Cl)c(Cl)c2)CC1 is ____. 12.6

Entry source: patent US20070219214A1
